# Ratio IC50 per entry
Assay: Selectivity ratio of IC50 for recombinant JAK3 to IC50 for recombinant JAK2
quantity: Ratio IC50

• C1=C/COCc2cc(ccc2OCCN2CCCC2)Nc2nccc(n2)-c2coc(c2)COC/1 (mixture of isomers) = 131
• C1=C/COCc2cc(ccc2OCCN2CCCC2)Nc2nccc(n2)-c2ccc(o2)COC/1 (mixture of isomers) = 93
• C1=C/COCc2cc(ccc2OCCN2CCCC2)Nc2nccc(n2)-c2ccc(s2)COC/1 (mixture of isomers) = 89
• C1=C/COCc2cc(ccc2OCCN2CCCC2)Nc2nccc(n2)-c2csc(c2)COC/1 (mixture of isomers) = 40

---

Target: Tyrosine-protein kinase JAK2 (Homo sapiens)
Sequence (O60674 whole entry): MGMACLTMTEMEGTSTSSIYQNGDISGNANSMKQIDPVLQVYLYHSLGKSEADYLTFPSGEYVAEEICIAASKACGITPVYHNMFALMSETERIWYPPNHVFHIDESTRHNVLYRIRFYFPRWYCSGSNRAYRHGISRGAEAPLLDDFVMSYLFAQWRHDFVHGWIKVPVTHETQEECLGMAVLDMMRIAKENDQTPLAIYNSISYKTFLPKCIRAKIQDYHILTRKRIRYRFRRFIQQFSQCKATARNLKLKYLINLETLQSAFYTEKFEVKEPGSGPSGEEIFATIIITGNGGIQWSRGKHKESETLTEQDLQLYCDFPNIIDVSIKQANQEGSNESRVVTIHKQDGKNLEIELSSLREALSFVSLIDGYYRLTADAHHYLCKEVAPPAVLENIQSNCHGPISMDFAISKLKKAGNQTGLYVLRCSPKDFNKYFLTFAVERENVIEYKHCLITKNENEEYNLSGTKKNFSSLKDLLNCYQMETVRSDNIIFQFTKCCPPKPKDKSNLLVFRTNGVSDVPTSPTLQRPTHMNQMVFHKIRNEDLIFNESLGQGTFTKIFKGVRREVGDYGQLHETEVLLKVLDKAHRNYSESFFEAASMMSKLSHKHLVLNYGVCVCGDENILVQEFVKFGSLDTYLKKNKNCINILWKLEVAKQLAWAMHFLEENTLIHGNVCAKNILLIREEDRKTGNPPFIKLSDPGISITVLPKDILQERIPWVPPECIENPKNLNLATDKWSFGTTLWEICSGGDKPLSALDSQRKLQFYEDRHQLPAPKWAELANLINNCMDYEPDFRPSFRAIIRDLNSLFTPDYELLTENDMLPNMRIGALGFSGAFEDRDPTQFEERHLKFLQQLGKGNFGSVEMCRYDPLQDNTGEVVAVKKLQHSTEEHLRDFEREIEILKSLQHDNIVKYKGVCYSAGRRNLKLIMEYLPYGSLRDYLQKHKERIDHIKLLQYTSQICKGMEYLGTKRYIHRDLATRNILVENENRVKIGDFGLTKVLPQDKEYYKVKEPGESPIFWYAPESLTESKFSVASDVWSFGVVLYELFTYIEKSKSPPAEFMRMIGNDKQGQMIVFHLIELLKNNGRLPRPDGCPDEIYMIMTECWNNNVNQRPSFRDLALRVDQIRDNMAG
Experiment: Inhibition of recombinant JAK2 using poly(Glu,Ala,Tyr) as substrate after 2 hrs by luminometric assay
pIC50: −log10 of the molar value.
# if value of pIC50 reaches 7, tag 1 (yes); if it stays below, tag 0 (no)

• C1=C/COCc2cc(ccc2OCCN2CCCC2)Nc2nccc(n2)-c2ccnc(c2)OCC/1 (mixture of isomers) = 1 (yes)
• C1=C2COC/C=C/COCc3cccc(c3)Nc3nccc(n3)C(=C1)O2 (mixture of isomers) = 0 (no)
• C1=C2COC/C=C/COCc3cc(ccc3OCCN3CCCC3)Nc3nccc(n3)C(=C1)O2 (mixture of isomers) [CT-1578] = 1 (yes)

---

Test: Half life in mouse liver microsomes at 5 uM
Type: ADME, Microsome
quantity: half-life at 5 µM

* C1=C2COC/C=C/COCc3cc(ccc3OCCN3CCCC3)Nc3nccc(n3)C(=C1)O2 (mixture of isomers) | > 1 h

---

Assay: Half life in human liver microsomes
Format: ADME, Microsome
quantity: half-life

* C1=C2COC/C=C/COCc3cc(ccc3OCCN3CCCC3)Nc3nccc(n3)C(=C1)O2 (mixture of isomers) [CT-1578] | > 1 h
* C1=C2COC/C=C/COCc3cc(ccc3OCCN3CCCC3)Nc3nccc(n3)C(=C1)S2 (mixture of isomers) | > 1 h
* C1=C/COCc2cc(ccc2OCCN2CCCC2)Nc2nccc(n2)-c2csc(c2)COC/1 (mixture of isomers) | > 1 h
* C1=C/COCc2cc(ccc2OCCN2CCCC2)Nc2nccc(n2)-c2coc(c2)COC/1 (mixture of isomers) | > 1 h

---

# Ratio IC50 per entry
Assay: Selectivity ratio of IC50 for recombinant CDK2 to IC50 for recombinant JAK2
quantity: Ratio IC50

• C1=C/COCc2cc(ccc2OCCN2CCCC2)Nc2nccc(n2)-c2ccc(s2)COC/1 (mixture of isomers) = 397
• C1=C/COCc2cc(ccc2OCCN2CCCC2)Nc2nccc(n2)-c2csc(c2)COC/1 (mixture of isomers) = 400
• C1=C/COCc2cc(ccc2OCCN2CCCC2)Nc2nccc(n2)-c2ccc(o2)COC/1 (mixture of isomers) = 152

---

Experiment: Half life in rhesus monkey live microsomes at 5 uM
Format: ADME, Macaca mulatta
Details: liver microsomes
quantity: half-life at 5 µM (min)

- C1=C2COC/C=C/COCc3cc(ccc3OCCN3CCCC3)Nc3nccc(n3)C(=C1)O2 (mixture of isomers): 23

---

Test: Half life in mouse liver microsomes
Type: ADME, Microsome
quantity: half-life (min)

• C1=C2COC/C=C/COCc3cc(ccc3OCCN3CCCC3)Nc3nccc(n3)C(=C1)S2 (mixture of isomers) = 27
• C1=C/COCc2cc(ccc2OCCN2CCCC2)Nc2nccc(n2)-c2csc(c2)COC/1 (mixture of isomers) = 25
• C1=C/COCc2cc(ccc2OCCN2CCCC2)Nc2nccc(n2)-c2coc(c2)COC/1 (mixture of isomers) = 18
• C1=C2COC/C=C/COCc3cc(ccc3OCCN3CCCC3)Nc3nccc(n3)C(=C1)O2 (mixture of isomers) = 27

---

Assay: Tmax in rhesus monkey at 20 mg/kg, po
Type: ADME, organism-based, Macaca mulatta
Set-up: dose 20 mg/kg, route oral
Conditions: in vivo
quantity: Tmax (h)

* C1=C2COC/C=C/COCc3cc(ccc3OCCN3CCCC3)Nc3nccc(n3)C(=C1)O2 (mixture of isomers) | 2

---

# IC50 per entry
Molecular target: Tyrosine-protein kinase JAK2 (Homo sapiens)
Test: Inhibition of recombinant JAK2 using poly(Glu,Ala,Tyr) as substrate after 2 hrs by luminometric assay
quantity: IC50

• CN1C/C=C/COCC2CCCN(C2)c2ccnc(n2)Nc2cccc(c2)C1 (mixture of isomers) = > 10000 nM
• CN1C/C=C/COCC2=CC=C(O2)c2ccnc(n2)Nc2cccc(c2)C1 (mixture of isomers) = 820 nM
• C1=C/COCc2cc(ccc2OCCN2CCCC2)Nc2nccc(n2)-c2cncc(c2)COC/1 (mixture of isomers) = 290 nM
• CN1C/C=C/COCC2=CC=C(S2)c2ccnc(n2)Nc2ccc(OCCN3CCCC3)c(c2)C1 (mixture of isomers) = 90 nM
• CN1C/C=C/COCc2cncc(c2)-c2ccnc(n2)Nc2cccc(c2)C1 (mixture of isomers) = > 10000 nM
• C1=C/COCc2cc(ccc2OCCN2CCCC2)Nc2nccc(n2)-c2csc(c2)COC/1 (mixture of isomers) = 17 nM
• Cc1cnc2nc1-c1ccc3ccn(c3c1)C/C=C/COCc1cc(ccc1OCCN1CCCC1)N2 (mixture of isomers) = 370 nM
• C1=C/COCc2cncc(c2)-c2ccnc(n2)Nc2cccc(c2)COC/1 = 930 nM

---

Target: Cytochrome P450 3A4 (Homo sapiens, UniProt P08684)
Sequence (P08684 whole entry): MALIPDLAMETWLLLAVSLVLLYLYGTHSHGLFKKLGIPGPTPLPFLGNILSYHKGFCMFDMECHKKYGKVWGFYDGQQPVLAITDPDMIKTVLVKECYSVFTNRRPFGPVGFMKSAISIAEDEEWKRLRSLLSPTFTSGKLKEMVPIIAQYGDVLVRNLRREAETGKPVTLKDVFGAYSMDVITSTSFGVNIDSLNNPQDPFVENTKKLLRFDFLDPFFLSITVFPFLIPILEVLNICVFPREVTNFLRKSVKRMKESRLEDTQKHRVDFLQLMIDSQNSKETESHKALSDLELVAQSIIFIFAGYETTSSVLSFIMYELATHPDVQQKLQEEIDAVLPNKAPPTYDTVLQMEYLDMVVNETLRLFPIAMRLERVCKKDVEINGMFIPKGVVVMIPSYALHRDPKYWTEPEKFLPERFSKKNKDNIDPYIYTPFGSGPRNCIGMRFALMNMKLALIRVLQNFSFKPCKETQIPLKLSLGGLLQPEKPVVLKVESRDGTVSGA
Test: Inhibition of CYP3A4 in human liver microsomes using testosterone as substrate by LC-MS/MS analysis
Format: ADME, Microsome
# IC50 per entry
quantity: IC50

- C1=C2COC/C=C/COCc3cc(ccc3OCCN3CCCC3)Nc3nccc(n3)C(=C1)O2 (mixture of isomers): > 10 µM
- C1=C/COCc2cc(ccc2OCCN2CCCC2)Nc2nccc(n2)-c2coc(c2)COC/1 (mixture of isomers): > 10 µM
- C1=C2COC/C=C/COCc3cc(ccc3OCCN3CCCC3)Nc3nccc(n3)C(=C1)S2 (mixture of isomers): > 10 µM

---

Experiment: Plasma protein binding in human at 1000 ng/mL by equilibrium dialysis
Type: ADME, cell-free
Details: read-out: PPB
quantity: fraction unbound at 1000 ng/mL

- C1=C2COC/C=C/COCc3cc(ccc3OCCN3CCCC3)Nc3nccc(n3)C(=C1)O2 (mixture of isomers): 0.01

---

Molecular target: Cyclin-dependent kinase 9 (Homo sapiens)
Sequence (P50750 whole entry): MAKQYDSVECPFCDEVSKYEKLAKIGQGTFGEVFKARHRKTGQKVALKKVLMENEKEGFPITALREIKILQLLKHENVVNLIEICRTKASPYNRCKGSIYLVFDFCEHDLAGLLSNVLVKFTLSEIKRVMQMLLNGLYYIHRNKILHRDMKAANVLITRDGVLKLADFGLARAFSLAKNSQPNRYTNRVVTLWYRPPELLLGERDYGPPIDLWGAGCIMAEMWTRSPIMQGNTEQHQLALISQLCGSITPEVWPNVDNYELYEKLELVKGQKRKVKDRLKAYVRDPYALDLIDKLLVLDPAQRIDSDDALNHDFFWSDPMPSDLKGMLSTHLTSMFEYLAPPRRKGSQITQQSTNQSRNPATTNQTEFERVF
pIC50: −log10 of the molar value.
quantity: pIC50

• C1=C2COC/C=C/COCc3cc(ccc3OCCN3CCCC3)Nc3nccc(n3)C(=C1)O2 (mixture of isomers) = 7.44

---

Assay: Oral bioavailability in Wistar rat at 50 mg/kg
Format: ADME, organism-based
Settings: in vivo
quantity: bioavailability (%)

• C1=C2COC/C=C/COCc3cc(ccc3OCCN3CCCC3)Nc3nccc(n3)C(=C1)O2 (mixture of isomers) [CT-1578] = 6

---

Experiment: Plasma protein binding in dog at 1000 ng/mL by equilibrium dialysis
Type: ADME, cell-free, Canis lupus familiaris
Details: read-out: PPB (converted)
quantity: fraction unbound at 1000 ng/mL

• C1=C2COC/C=C/COCc3cc(ccc3OCCN3CCCC3)Nc3nccc(n3)C(=C1)O2 (mixture of isomers) [CT-1578] = 0.127

---

Test: Plasma protein binding in monkey at 1000 ng/mL by equilibrium dialysis
Type: ADME, cell-free, Macaca mulatta
Conditions: rhesus monkey, read-out: PPB (converted)
quantity: fraction unbound at 1000 ng/mL

- C1=C2COC/C=C/COCc3cc(ccc3OCCN3CCCC3)Nc3nccc(n3)C(=C1)O2 (mixture of isomers) [CT-1578]: 0.013

---

Experiment: Cmax in rhesus monkey at 20 mg/kg, po
Format: ADME, organism-based, Macaca mulatta
Parameters: dose 20 mg/kg, route oral
Settings: in vivo
quantity: Cmax (ng/mL)

* C1=C2COC/C=C/COCc3cc(ccc3OCCN3CCCC3)Nc3nccc(n3)C(=C1)O2 (mixture of isomers) | 1980

---

Molecular target: Cytochrome P450 2D6 (Homo sapiens, UniProt P10635)
Sequence (P10635 whole entry): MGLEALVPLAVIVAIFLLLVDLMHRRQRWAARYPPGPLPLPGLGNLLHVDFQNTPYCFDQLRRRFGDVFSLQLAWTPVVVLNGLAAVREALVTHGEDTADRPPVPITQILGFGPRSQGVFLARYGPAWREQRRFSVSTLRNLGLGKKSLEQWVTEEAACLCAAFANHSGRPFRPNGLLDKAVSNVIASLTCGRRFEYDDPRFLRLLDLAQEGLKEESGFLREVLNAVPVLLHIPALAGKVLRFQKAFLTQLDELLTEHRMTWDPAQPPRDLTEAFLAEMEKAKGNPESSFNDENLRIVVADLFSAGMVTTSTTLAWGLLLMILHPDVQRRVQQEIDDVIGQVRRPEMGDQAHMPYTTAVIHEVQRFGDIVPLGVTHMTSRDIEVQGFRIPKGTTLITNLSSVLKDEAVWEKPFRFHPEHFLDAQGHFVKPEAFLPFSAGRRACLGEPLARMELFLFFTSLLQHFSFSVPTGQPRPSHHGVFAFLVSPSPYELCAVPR
Assay: Inhibition of CYP2D6 in human liver microsomes using dextromethorphan as substrate by LC-MS/MS analysis
Format: ADME, Microsome
pIC50: −log10 of the molar value.
# pIC50 per entry
quantity: pIC50

* C1=C/COCc2cc(ccc2OCCN2CCCC2)Nc2nccc(n2)-c2coc(c2)COC/1 (mixture of isomers) | < 5.00
* C1=C2COC/C=C/COCc3cc(ccc3OCCN3CCCC3)Nc3nccc(n3)C(=C1)S2 (mixture of isomers) | < 5.00
* C1=C2COC/C=C/COCc3cc(ccc3OCCN3CCCC3)Nc3nccc(n3)C(=C1)O2 (mixture of isomers) | < 5.00

---

Experiment: Half life in human liver microsomes at 5 uM
Assay type: ADME, Microsome
quantity: half-life at 5 µM

* C1=C2COC/C=C/COCc3cc(ccc3OCCN3CCCC3)Nc3nccc(n3)C(=C1)O2 (mixture of isomers) | > 1 h
